Entry source: patent US20180037595A1

- Tested on: M. tuberculosis standard strain Mtb H37Rv
- assay.text: MIC determination against mycobacteria (resazurin microtiter assay)
- Assay type: cell-based, Mycobacterium tuberculosis
- recorded.conditions: HepG2 cell 48 h Tox50 (A) / Mtb H37Rv MIC (B)
readout: Selectivity Index (A/B)

molecule	measurement
NCC1OB2OCCOc3cccc1c32 (racemic) [Example C2-H, reference compound]	>26

Incoming: Let me know recorded Selectivity Index (A/B) for NC[C@H]1OB2OCCOc3c(Cl)cc(Cl)c1c32 [Example C14-Cl2, reference compound] , thanks.
Outgoing: >10

Incoming: Let me know recorded Selectivity Index (A/B) for CC1COc2ccc(Br)c3c2B(O1)OC3CN.Cl (stereo not drawn) [Example 8] , thanks.
Outgoing: >167

Incoming: Let me know recorded Selectivity Index (A/B) for C[C@]1(CO)COc2ccc(Br)c3c2B(O[C@@H]3CN)O1 [Example 17] , thanks.
Outgoing: >50

Incoming: Let me know recorded Selectivity Index (A/B) for Cl.NC[C@H]1OB2OCCOc3ccc(Br)c1c32 [Example 2] , thanks.
Outgoing: 4177

Incoming: Let me know recorded Selectivity Index (A/B) for Cl.NC[C@H]1OB2O[C@H](CO)COc3ccc(F)c1c32 [Example 13] , thanks.
Outgoing: >10

Incoming: Let me know recorded Selectivity Index (A/B) for CC1(C)COc2cccc3c2B(OC3CN)O1 (stereo not drawn) [Example C12-H, reference compound] , thanks.
Outgoing: >4.9

Incoming: Let me know recorded Selectivity Index (A/B) for CC1COc2c(Cl)cc(Cl)c3c2B(O1)OC3CN (stereo not drawn) [Example C7-Cl2, reference compound] , thanks.
Outgoing: >20

Incoming: Let me know recorded Selectivity Index (A/B) for CC1COc2cccc3c2B(O1)OC3CN (stereo not drawn) [Example C11-H, reference compound] , thanks.
Outgoing: >32

Incoming: Let me know recorded Selectivity Index (A/B) for CC1COc2ccc(Cl)c3c2B(O1)OC3CN.Cl (stereo not drawn) [Example 7] , thanks.
Outgoing: >250

Incoming: Let me know recorded Selectivity Index (A/B) for C[C@@]1(CO)COc2ccc(Br)c3c2B(OC3CN)O1 (stereo partly drawn) [Example 16] , thanks.
Outgoing: >40

Incoming: Let me know recorded Selectivity Index (A/B) for C[C@@]1(CO)COc2ccc(Cl)c3c2B(OC3CN)O1 (single isomer, unassigned) [Example 14] , thanks.
Outgoing: >4

Incoming: Let me know recorded Selectivity Index (A/B) for NCCOc1cccc2c1B(O)OC2 [Example C3-H, reference compound] , thanks.
Outgoing: >0.8

Incoming: Let me know recorded Selectivity Index (A/B) for CC1(C)COB2OC(CN)c3c(Cl)ccc(c32)O1 (stereo not drawn) [Example C9-Cl, reference compound] , thanks.
Outgoing: >10

Incoming: Let me know recorded Selectivity Index (A/B) for NC[C@H]1OB2OCCOc3c(Cl)ccc1c32 [Example C13-Cl, reference compound] , thanks.
Outgoing: >10

Incoming: Let me know recorded Selectivity Index (A/B) for CC1(C)COc2c(Cl)ccc3c2B(OC3CN)O1 (stereo not drawn) [Example C8-Cl, reference compound] , thanks.
Outgoing: 10

Incoming: Let me know recorded Selectivity Index (A/B) for C[C@]1(CO)COc2ccc(Cl)c3c2B(OC3CN)O1 (stereo partly drawn) [Example 15] , thanks.
Outgoing: >50

Incoming: Let me know recorded Selectivity Index (A/B) for CCOc1cccc2c1B(O)O[C@@H]2CN [Example C5-H, reference compound] , thanks.
Outgoing: 5
